Where a name gives a salt, the structure may show the parent alone.
Can you tell me melting point for the items I'm about to list?

Answered cases to consult:
• C[C@@H](c1ccccc1)N1[C@H](C(=O)O)C[C@H]1C(=O)N[C@@H](Cc1ccc(NC(=O)c2c(Cl)cccc2Cl)cc1)C(=O)O (as salt: salt) [Example 129, Dilithium Salt] = 270 °C
• CS(=O)(=O)N1CSC[C@@H]1C(=O)N[C@@H](Cc1ccc(OCc2c(Cl)cccc2Cl)cc1)C(N)=O [Example 159] = 228 to 230 °C

Note: attention shifts to another entry.
Fill in melting point for record COC(=O)[C@H](Cc1ccc(OCc2c(Cl)cccc2Cl)cc1)NC(=O)[C@H]1CSCN1C(=O)OCc1ccccn1 (relative stereo) [Example 38]
123 to 125 °C
